Tested system: HIV-1 reverse transcriptase (Human immunodeficiency virus 1, UniProt P03366;P03366 P03366:600-1159,P03366:600-1039)
Measurement description: filter; HRT buffer, 6 mM MgCl2, 37 C
Applied conditions: tags: expressed in E. coli, purified per Davies et al. 1991; label: 5'-32P; internal loop (AA opposite CG) helix
Outcome measure: Kd

Req: Give me measured Kd, please, for this binder: RT1 (ssDNA) DNA: ATCCGCCTGATTAGCGATACTCAGAAGGATAAACTGTCCAGAACTTGGAATATATCACTTGAGCAAAATCACCTGCAGGGG
Resp: ~1 nM
